Listing of entries alongside the reported growth.
test system: NCI-H226 lung; assay: NCI-60 one-dose screen, 48 h (100 = growth as untreated, 0 = no growth, -100 = all killed); conditions: 10 µM
About 83,000 compounds went through this panel and 20% of them were active in at least one assay; those are over-represented in the sample as a whole.
observable: growth (%)

molecule="C/C(=C/CCC(C)[C@@H]1CC[C@]2(C)C3=C(CC[C@@]12C)[C@@]1(C)CCC(=O)C(C)(C)[C@@H]1CC3)C(=O)O (some centres undefined)" observable=growth unit_info=% assay_value=-47.3
molecule=Cc1ccc(NC(=S)NNC(=S)Nc2ccc(C)cc2)cc1 observable=growth unit_info=% assay_value=94.7
molecule=O=C(O)c1cn(C2CC2)c2cc(N3CCN(C(=O)c4cc(-c5ccc(Cl)cc5)nc5ccccc45)CC3)c(F)cc2c1=O observable=growth unit_info=% assay_value=92.3
molecule="COc1cc(C2CC(c3ccc4c(c3)OCO4)=NN2c2ccccc2)cc(OC)c1OC (centres undefined)" observable=growth unit_info=% assay_value=102
molecule=CC(C)(O)CCl observable=growth unit_info=% assay_value=96.7
molecule=Cc1c2c(nn1C(=O)c1nn(-c3ccc(Cl)cc3)cc1O)-c1ccccc1CC2 observable=growth unit_info=% assay_value=22
molecule="CCOC(=O)C1=CSC2=NC3=C(CCC/C3=C\\c3ccc(Cl)cc3)C(c3ccc(Cl)cc3)N12 (centres undefined)" observable=growth unit_info=% assay_value=92.2
molecule=CCN(CC)CCOc1cccc2c1C(=O)c1cccc(OCCN(CC)CC)c1C2=O observable=growth unit_info=% assay_value=36.6
molecule="C/C=C/C1=CN2C(=O)c3cc(OC4OC(C)C(NC)C(C)(O)C4O)c(C)c(O)c3N=C[C@@H]2C1 (some centres undefined)" observable=growth unit_info=% assay_value=3.31

* * *

test system: HCT-15 colon; test: NCI-60 one-dose screen, 48 h (100 = growth as untreated, 0 = no growth, -100 = all killed); details: 10 µM
The panel holds about 83,000 compounds, 20% with a hit somewhere; the sample as a whole holds those more often.
observable: growth (%)

compound="CC[C@@H](C(=O)[C@@H](C)[C@@H](O)[C@H](C)[C@@H]1O[C@@H]([C@@H](CC)C(=O)N(CC)CC)CC[C@@H]1C)C1O[C@]2(C=CC(=O)[C@]3(CC[C@@](C)([C@H]4CC[C@](O)(CC)[C@H](C)O4)O3)O2)[C@H](C)C[C@@H]1C (some centres not stated)" unit_info=% assay_value=11
compound=CC[C@H]1OC(=O)[C@H](C)[C@@H](O[C@H]2C[C@@](C)(OC)[C@@H](O)[C@H](C)O2)[C@H](C)[C@@H](O[C@@H]2O[C@H](C)C[C@H](N(C)C)[C@H]2O)[C@](C)(OC)C/C(C)=C2/O[C@@]1(C)C=C2C unit_info=% assay_value=-33.5
compound="Nc1ncnc2c1ncn2C1(CO)OCC(O)C(O)C1O (configuration not stated)" unit_info=% assay_value=105
compound="CCCN(CCC)C(=O)[C@H](CC)[C@@H]1CC[C@@H](C)[C@@H]([C@H](C)[C@@H](O)[C@@H](C)C(=O)[C@H](CC)C2O[C@]3(C=C[C@@H](O)[C@]4(CC[C@@](C)([C@H]5CC[C@](O)(CC)[C@H](C)O5)O4)O3)[C@H](C)C[C@@H]2C)O1 (some centres not stated)" unit_info=% assay_value=-9.51
compound=C=CCn1c(SCC(=O)Nc2ccc(C(=O)/C=C/c3cc(OC)c(OC)c(OC)c3)cc2)nnc1-c1cc(-c2ccc(Cl)cc2)nc2ccccc12 unit_info=% assay_value=59.5
compound=CCN(CCCNc1cc2c(c(N)c1S(=O)(=O)O)C(=O)c1ccccc1C2=O)c1ccccc1 unit_info=% assay_value=107
compound="OCC1OC(n2ccc3c(NO)ncnc32)C(O)C1O (configuration not stated)" unit_info=% assay_value=-37.6
compound=Clc1nc2ccc(Br)cc2cc1-c1nc2ccccc2[nH]1 unit_info=% assay_value=92.3
compound=O=C1c2c(c3c4ccccc4n(CCCCCCN4CCOCC4)c3c3[nH]c4ccccc4c23)C(=O)N1O unit_info=% assay_value=16.5
compound=COc1ccc(/C=C/C(=O)C(=O)/C=C/c2ccc(OC)c(OC)c2)cc1OC unit_info=% assay_value=-3.56
compound=CC(=O)OC/C=C(/C)C[P+](c1ccccc1)(c1ccccc1)c1ccccc1 unit_info=% assay_value=73.3
compound=CCOC(=O)c1cc(C(=O)c2ccc(OC)c(OC)c2)n2ccncc12 unit_info=% assay_value=89.9
compound=Cc1cc(=O)n2nnc3cc(Cl)c(Cl)cc3n12 unit_info=% assay_value=103
compound=COc1ccc2nc3cc(Cl)ccc3c(Nc3cc(CN4CCCC4)c(O)c(CN4CCCC4)c3)c2n1 unit_info=% assay_value=5.6
compound=COc1ccc2c(c1)C(=O)/C(=C/c1cccc(OCC(=O)c3ccc([N+](=O)[O-])cc3)c1)CO2 unit_info=% assay_value=-37.6
compound=Cc1cn(-c2cc(F)cc(NC(=O)c3ccc(C)c(Nc4nccc(-c5cccnc5)n4)c3)c2)cn1 unit_info=% assay_value=74.9
compound=COc1cccc(CNc2cccc3cn[nH]c23)c1O unit_info=% assay_value=93.4

* * *

tested on: HOP-62 NSCLC; assay: NCI-60 one-dose screen, 48 h; conditions: 10 µM
About 83,000 compounds went through this panel and 20% of them were active in at least one assay; those are over-represented in the sample as a whole. The source made the active and inactive calls. How the source made its calls: active means growth percent below 10; inactive means the rest.
Outcome codes: True = active, False = inactive

compound=O=S(=O)(O)c1ccc(Cl)cc1 test_system="HOP-62 NSCLC" classification=False
compound=Oc1cccc(-c2nc3sccn3c2-c2ccncn2)c1 test_system="HOP-62 NSCLC" classification=False
compound=Nc1nc(Cn2c(-c3nonc3N)nc3ccccc32)nc(N2CCCCC2)n1 test_system="HOP-62 NSCLC" classification=False
compound=COc1cc(-c2nn(-c3cccc(NC(=O)CCN4CCN(c5ccccc5)CC4)c3)cc2-c2ccncc2)ccc1Cl test_system="HOP-62 NSCLC" classification=False
compound=c1ccc(CSc2ncccc2-c2nnc(SCCN3CCOCC3)o2)cc1 test_system="HOP-62 NSCLC" classification=False
compound=COc1cc(C(=O)n2nc(-c3cc(OC)c(OC)c(OC)c3)nc2N)cc(OC)c1OC test_system="HOP-62 NSCLC" classification=False
compound="OCC1OC2C(NC(=S)N2c2ccccc2)C(O)C1O (centres undefined)" test_system="HOP-62 NSCLC" classification=False
compound=C[C@@H](C[C@H](CCO)c1ccccc1)c1ccc2ccccc2c1 test_system="HOP-62 NSCLC" classification=True
compound="CCCCN(CCCC)C(=O)[C@H](CC)[C@@H]1CC[C@@H](C)[C@@H]([C@H](C)[C@@H](O)[C@@H](C)C(=O)[C@H](CC)C2O[C@]3(C=CC(=O)[C@]4(CC[C@@](C)([C@H]5CC[C@](O)(CC)[C@H](C)O5)O4)O3)[C@H](C)C[C@@H]2C)O1 (some centres undefined)" test_system="HOP-62 NSCLC" classification=False

* * *

system: UACC-62 melanoma; assay: NCI-60 one-dose screen, 48 h; conditions: 10 µM
The panel holds about 83,000 compounds, 20% with a hit somewhere; the sample as a whole holds those more often. The source made the active and inactive calls. How the source made its calls: active means growth percent below 10; inactive means the rest.
Outcome codes: active, inactive

compound="Nc1ncnc2c1ncn2C1(CO)OCC(O)C(O)C1O (stereo not given)" classification=inactive
compound=O=C(N/N=C/c1cc([N+](=O)[O-])ccc1O)c1cccc2ccccc12 classification=active
compound=Cc1cc(Br)nnc1Br classification=inactive
compound=COc1cc(/C=C/c2cc(/C=C/c3ccc(O)c(OC)c3)[nH]c(=O)n2)ccc1O classification=inactive
compound=O=C1/C=C/[C@@H](O)[C@@H]2C[C@@H](O)C[C@H]2/C=C/CCC[C@H](CCc2ccc(C(F)(F)F)cc2)O1 classification=active

* * *

test system: NCI/ADR-RES ovarian; test: NCI-60 one-dose screen, 48 h; details: 10 µM
Compounds without any hit were thinned out: in the full panel of roughly 83,000, 20% have a hit. Calls of active or inactive are those of the source. Rule for the calls: active = growth percent below 10; inactive = the rest.
Outcome codes: active, inactive

compound=CCCCC/C=C/C/C=C/CCCCCCCC1=NC(C)(C)CN1C(C)C classification=inactive
compound=COc1ccc(-c2nn(-c3cccc(Cl)c3)cc2-c2cc(-c3cccs3)[nH]c(=S)n2)cc1 classification=inactive
compound=COc1cccc(-c2nc3sccn3c2-c2cccc(S(C)(=O)=O)c2)c1 classification=inactive
compound=COc1ccc(-c2nn(-c3cccc(Cl)c3)cc2/C=C2\NC(=S)N(c3ccc(Cl)cc3)C2=O)cc1 classification=active
compound=CCN(CC)CCOc1cccc2c1C(=O)c1ccccc1C2=O classification=inactive
compound=O=C1/C(=C/c2ccc([N+](=O)[O-])s2)Oc2cc(Cl)ccc21 classification=inactive
compound=O=C1Cc2cc(CCN3CCN(c4nsc5ccccc45)CC3)c(Cl)cc2N1 classification=inactive
compound=COc1cc(-c2ccc(N=Nc3ccc4c(S(=O)(=O)O)ccc(N)c4c3O)c(OC)c2)ccc1N=Nc1ccc2c(S(=O)(=O)O)ccc(N)c2c1O classification=inactive
compound=COc1ccc(-c2nn(-c3cccc(Cl)c3)cc2-c2c(C#N)c(=O)n3[nH]c(-c4ccc(C)cc4)nc3c2C#N)cc1 classification=inactive
compound=CC(C)(C)c1ccc(S(=O)(=O)Oc2ccc(NC(=O)C3CCCCC3)cc2)cc1 classification=inactive
compound="CCCC1(CN2c3ccccc3Sc3ccc(Cl)cc32)CCN(CC)C1 (stereo not given)" classification=inactive
compound=CC[N+](CC)=c1ccc2nc3c(cc(NCc4ccccc4)c4ccccc43)oc-2c1 classification=active
compound=Cc1cc(=O)n2nnc3cc(Cl)c(Cl)cc3n12 classification=inactive
compound=Cn1c2ccccc2c2c3[nH][nH]c(=O)c3c3c4ccccc4[nH]c3c21 classification=inactive
compound=CC(=O)Nc1ccc(S(=O)(=O)N/N=C(\C)c2ccc(C)cc2C)cc1 classification=inactive
compound=C/C=C/CSC(C)(C)C(=O)NC classification=inactive
compound=O=S(=O)(O)c1cccc(Nc2ccc3ccccc3c2)c1 classification=inactive
compound="C[C@]12CCC3c4ccc(O)cc4C[C@@H](CCCCCCCCCS(=O)CCCC(F)(F)C(F)(F)F)C3C1CC[C@@H]2O (stereo not given in full)" classification=inactive
compound="COc1cc(/C=C2\\CCCC3=C2N=C2SC(C)=CN2C3c2cc(OC)c(OC)c(OC)c2)cc(OC)c1OC (stereo not given)" classification=active
compound=CS(=O)(=O)c1nccc(-c2c(-c3cccc(O)c3)nc3sccn23)n1 classification=inactive
